target: UniProtKB P97639; assay: Aequorin bioluminescence functional assay, MCH-1R agonist activity
Sequence (P97639 whole entry): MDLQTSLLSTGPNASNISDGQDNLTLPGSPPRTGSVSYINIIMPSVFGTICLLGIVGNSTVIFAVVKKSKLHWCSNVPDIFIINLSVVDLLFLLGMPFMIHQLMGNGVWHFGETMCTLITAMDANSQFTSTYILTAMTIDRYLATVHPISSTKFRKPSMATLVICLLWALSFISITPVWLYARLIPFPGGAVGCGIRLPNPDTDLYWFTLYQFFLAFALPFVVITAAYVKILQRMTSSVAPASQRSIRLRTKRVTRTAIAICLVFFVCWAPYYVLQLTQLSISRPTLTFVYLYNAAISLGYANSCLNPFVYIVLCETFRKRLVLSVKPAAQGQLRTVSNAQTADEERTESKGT
pEC50: −log10 of the molar value. Where a SMILES comes first, the peptide text is derived from it. Bridges are numbered along the chain shown (N, C = ends). [ ]: non-standard residue; d: D form. The star is where a group is joined. Pentanoyl(5-guanidino) = NC(N)=NCCCCC(=O)*; Ava = NCCCCC(=O)O
Provide the reported pEC50 of each item.

What pEC50 appears in the records for this compound with UniProtKB P97639? `CSCC[C@@H]1NC(=O)[C@@H](NC(=O)CCCNC(=N)N)CSSC[C@@H](C(N)=O)NC(=O)CCCCNC(=O)CCCCNC(=O)[C@H](Cc2ccc(O)cc2)NC(=O)[C@H](C(C)C)NC(=O)[C@H](CCCNC(=N)N)NC(=O)CNC(=O)[C@H](CC(C)C)NC1=O`
< 5.00

Now this one: CC(C)C[C@@H]1NC(=O)[C@H](C)NC(=O)[C@@H](NC(=O)CCCCNC(=N)N)CSSC[C@@H](C(N)=O)NC(=O)CCCCNC(=O)CCCCNC(=O)[C@H](Cc2ccc(O)cc2)NC(=O)[C@H](C(C)C)NC(=O)[C@H](CCCNC(=N)N)NC(=O)CNC1=O [SEQ. ID. NO. 19] ({Pentanoyl(5-guanidino)}-CALGRVY[Ava][Ava]C-NH2; disulfide 1-10 (inferred); C-terminus assumed)
< 5.00

Now this one: `CSCC[C@@H]1NC(=O)[C@@H](NC(=O)CCCCNC(=N)N)CSSC[C@@H](C(=O)O)NC(=O)CCCCNC(=O)CCCCNC(=O)[C@H](Cc2ccc(O)cc2)NC(=O)[C@H](C(C)C)NC(=O)[C@H](CCCNC(=N)N)NC(=O)CNC(=O)[C@H](CC(C)C)NC1=O`
< 5.00

Now this one: C[C@@H]1NC(=O)[C@@H](NC(=O)CCCCNC(=N)N)CSSC[C@@H](C(=O)O)NC(=O)CCCCNC(=O)CCCCNC(=O)[C@H](Cc2ccc(O)cc2)NC(=O)[C@H](C)NC(=O)[C@H](CCCNC(=N)N)NC(=O)CCCCNC(=O)CCCCNC1=O [SEQ. ID. NO. 34] ({Pentanoyl(5-guanidino)}-CA[Ava][Ava]RAY[Ava][Ava]C-OH; disulfide 1-10)
< 5.00

Now this one: CSCC[C@@H]1NC(=O)[C@@H](NC(=O)[C@@H](CCCNC(=N)N)NC(C)=O)CSSC[C@@H](C(N)=O)NC(=O)CCCCNC(=O)CCCCNC(=O)[C@H](Cc2ccc(O)cc2)NC(=O)[C@H](C(C)C)NC(=O)[C@H](CCCNC(=N)N)NC(=O)CNC(=O)[C@H](CC(C)C)NC1=O [SEQ. ID. NO. 10] (Ac-[dR]CMLGRVY[Ava][Ava]C-NH2; disulfide 2-11 (inferred); C-terminus assumed)
5.89

Now this one: CC(=O)N[C@@H](CCCNC(=N)N)C(=O)N[C@H]1CSSC[C@@H](C(N)=O)NC(=O)CCCCNC(=O)CCCCNC(=O)[C@H](Cc2ccc(O)cc2)NC(=O)[C@H](C(C)C)NC(=O)[C@H](CCCNC(=N)N)NC(=O)CNC(=O)[C@H](CC(C)C)NC(=O)[C@H](C)NC1=O [SEQ. ID. NO. 22] (Ac-RCALGRVY[Ava][Ava]C-NH2; disulfide 2-11; C-terminus assumed)
< 5.00

The values you see were collected from patent US7335723B2.
